Recorded pIC50 values for a group of compounds are listed next.
tested on: A549; test: Cytotoxicity against human A549 cells by MTT assay; assay type: functional, cell-based
pIC50: −log10 of the molar value.

Example results:
INSERT INTO results (chemical_smiles, measured_target, assay_endpoint, result_value) VALUES
  ('C[C@]1(O)C[C@@H](O)[C@]2(O)C=CO[C@@H](O[C@@H]3O[C@H](CO)[C@@H](O)[C@H](O)[C@H]3O)[C@@H]21', 'A549', 'pIC50', '< 5.00'),
  ('C[C@]1(O)C[C@@H](O)[C@@H]2C[C@@H](O[C@H]3C[C@@](C)(O)[C@@H]4[C@@H](O[C@H]5O[C@@H](CO)[C@H](O)[C@@H](O)[C@@H]5O)OC=C[C@@H]43)O[C@@H](O[C@H]3O[C@@H](CO)[C@H](O)[C@@H](O)[C@@H]3O)[C@@H]21', 'A549', 'pIC50', '< 5.00');

Requested read-out: pIC50. Entry: C[C@H]1[C@H]2[C@H](O[C@@H]3O[C@H](COC(=O)/C=C/c4ccccc4)[C@@H](O)[C@H](O)[C@H]3O)OC=C(C(=O)O)[C@H]2C[C@@H]1O
< 5.00

All values here come from ChEMBL document CHEMBL3808301.
